Target or system rat lens aldose reductase (Rattus norvegicus): recorded IC50 listed per item.
recorded_endpoint: IC50 (nM)

# count of solved cases: 4
compound: O=C1CN(S(=O)(=O)c2cc3ccccc3cc2Cl)C(=O)N1
reading_unit: nM
IC50: 160
//
compound: O=C1CN(S(=O)(=O)c2ccc3ccccc3c2Br)C(=O)N1
reading_unit: nM
IC50: 94
//
compound: O=C1CN(S(=O)(=O)c2cc3ccc(Cl)cc3cc2Cl)C(=O)N1
reading_unit: nM
IC50: 240
//
compound: Cc1cc2ccccc2cc1S(=O)(=O)N1CC(=O)NC1=O
reading_unit: nM
IC50: 140

A: O=C1CN(S(=O)(=O)c2ccc3ccccc3c2)C(=O)N1 [Compound A, 1-(naphthalene-2-ylsulfonyl)hydantoin, reference compound]
B: COc1ccc2cc(S(=O)(=O)N3CC(=O)NC3=O)ccc2c1[N+](=O)[O-]
# returns the entry with the larger IC50; inputs A and B Your choice should be expressed through its label.
A

a: O=C1CN(S(=O)(=O)c2ccc3c([N+](=O)[O-])cccc3c2)C(=O)N1
b: Cc1ccc2ccc(S(=O)(=O)N3CC(=O)NC3=O)cc2c1
Pick one, a or b : lowest reported IC50. Your choice should be expressed through its label.
a
(a: 100 nM, b: 350 nM)
